System: MDA-MB-231 breast
assay_protocol: NCI tumour cell line growth inhibition, 48 h
Each entry below lists one item and its recorded GI50 value.

>  <smiles_representation>
O=Cc1ncc(-c2ccc(C(F)(F)F)cc2)c(NC2CCCCCC2)n1

>  <GI50>
> 10 µM

$$$$
>  <smiles_representation>
Cc1cc(N2CCOCC2)nc(N(CCNc2ccnc3cc(Cl)ccc23)Cc2ccco2)n1

>  <GI50>
3.16 µM

$$$$
>  <smiles_representation>
Nc1cccc(-c2nc3sccn3c2-c2ccnc(NCCCNS(=O)(=O)c3ccc(C(F)(F)F)cc3)n2)c1

>  <GI50>
4.85 µM

$$$$
>  <smiles_representation>
Cc1nc(NC(=O)COc2cccc(/C=C3\COc4ccccc4C3=O)c2)sc1C

>  <GI50>
2.63 µM

$$$$

[Q] Dear colleague, please send me the reported GI50 for `Oc1c(Cl)cc(C(c2cc(Cl)c(O)c(Cl)c2)C(c2cc(Cl)c(O)c(Cl)c2)c2cc(Cl)c(O)c(Cl)c2)cc1Cl` when you can.
[A] 6.22 µM

[Q] Dear colleague, please send me the reported GI50 for `O=C(/C=C/c1ccccc1Cl)c1ccc(O)cc1` when you can.
[A] 13.6 µM

---

Tested on: IGROV1 ovarian
assay_protocol: NCI tumour cell line growth inhibition, 48 h
Each entry below lists one item and its recorded TGI value.
Your answer is read as µM, so omit the unit and give the number.

Worked cases, answers included:
>  <compound>
O=C1OCC2=C1C(c1ccccc1)c1cc3c(cc1N2CCO)CCC3 (centres undefined)

>  <unit_name>
µM

>  <meas_value>
0.774

$$$$
>  <compound>
COc1c(Nc2ncc(Cl)c(N[C@@H]3[C@H]4C=CC(C4)[C@@H]3C(N)=O)n2)ccc2c1CC[C@@H](N1CCOCC1)CC2

>  <unit_name>
µM

>  <meas_value>
35.8

$$$$
>  <compound>
CCOC(=O)c1c(NS(=O)(=O)c2ccc(Br)cc2)sc2c1CCCC2

>  <unit_name>
µM

>  <meas_value>
8.79

$$$$

[Q] Dear colleague, please send me the reported TGI for CCC(C#N)N(Cc1ccc(CN(C(=O)c2ccccc2)C(C#N)CC)cc1)C(=O)c1ccccc1 (centres undefined) when you can.
[A] 61.8

[Q] Dear colleague, please send me the reported TGI for `Oc1ccc(Cl)cc1Cc1cc(Cl)cc(Cc2cc(Cl)ccc2O)c1O` when you can.
[A] 13.5

---

Each entry below lists one item and its recorded TGI value.
System: SF-268 CNS
assay_protocol: NCI tumour cell line growth inhibition, 48 h

>  <molecule>
Nc1nc(N)nc(-c2cnc3ccccc3c2)n1

>  <experimental_target>
SF-268 CNS

>  <TGI>
> 100 µM

$$$$
>  <molecule>
Nn1c(-c2ccccc2Nc2ccccc2-c2n[nH]c(=S)n2N)n[nH]c1=S

>  <experimental_target>
SF-268 CNS

>  <TGI>
> 50 µM

$$$$

[Q] Dear colleague, please send me the reported TGI for `C=C1CCCC(C)(C)[C@@H]1CC/C(C)=C/Cn1c2cccc(=O)c-2nc2ccccc21` when you can.
[A] 3.71 µM

[Q] Dear colleague, please send me the reported TGI for `O=C(/C=C/c1ccccc1O)c1ccccc1` when you can.
[A] 21.2 µM

[Q] Dear colleague, please send me the reported TGI for `CNC(=S)NNC(=O)c1c(C)nc2sccn12` when you can.
[A] > 100 µM

[Q] Dear colleague, please send me the reported TGI for `NNC(=O)CC(=O)Nc1ccc(C(=O)O)cc1` when you can.
[A] > 100 µM

[Q] Dear colleague, please send me the reported TGI for O=C(O)C(F)(OC(F)(F)C(F)(F)C(F)(F)F)C(F)(F)F (stereo unspecified) when you can.
[A] > 100 µM

[Q] Dear colleague, please send me the reported TGI for `O=C1C(=O)c2ccccc2C=C1[N+](=O)[O-]` when you can.
[A] > 100 µM

[Q] Dear colleague, please send me the reported TGI for `CC(C)CC(=O)N1CCN(C(=O)CC(C)C)c2ccccc21` when you can.
[A] > 100 µM
